- assayed target: CAR (NR1I3) Asn165Ala mutant (Homo sapiens, UniProt Q14994, N165A)
- Sequence (Q14994 whole entry N165A, the tested form may be a part): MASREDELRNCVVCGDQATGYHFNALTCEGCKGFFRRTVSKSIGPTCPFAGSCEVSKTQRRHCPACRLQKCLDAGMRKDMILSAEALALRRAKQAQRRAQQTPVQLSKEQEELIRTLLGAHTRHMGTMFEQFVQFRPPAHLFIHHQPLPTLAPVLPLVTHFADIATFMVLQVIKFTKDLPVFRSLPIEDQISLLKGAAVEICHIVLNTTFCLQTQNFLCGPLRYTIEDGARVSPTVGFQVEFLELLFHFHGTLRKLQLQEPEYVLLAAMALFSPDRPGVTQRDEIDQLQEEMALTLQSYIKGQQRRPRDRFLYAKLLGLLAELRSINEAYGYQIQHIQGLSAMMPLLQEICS
- assay: Activation of human CAR Asn165Ala mutant expressed in human C3A cells at 10 uM after 24 hrs by GAL4-dependent luciferase reporter gene assay relative to control
- Type: cell-based
- reported conditions: C3A cells expressing human CAR Asn165Ala mutant, read-out: FC
observed property: fold induction at 24 h, 10 µM

CCc1cc(Br)ccc1S(=O)(=O)Nc1ccccc1[C@@H](C)CC 2.75

a. O=C(NCC1CCCCC1)N[C@H]1C[C@@H]1c1ccccc1
b. CCOc1ccccc1N1CCN(Cc2ccc(C)s2)CC1
Exam item: Lab notebook, comparison: a versus b , higher fold induction at 24 h, 10 µM goes to which? Answer by stating the label of the chosen item.
Marked response: b
(b: 2.2, a: 1.14)

====

- assayed target: CAR (NR1I3) ligand-binding domain, wild type (Homo sapiens, UniProt Q14994)
- Sequence (Q14994 whole entry, the tested form may be a part): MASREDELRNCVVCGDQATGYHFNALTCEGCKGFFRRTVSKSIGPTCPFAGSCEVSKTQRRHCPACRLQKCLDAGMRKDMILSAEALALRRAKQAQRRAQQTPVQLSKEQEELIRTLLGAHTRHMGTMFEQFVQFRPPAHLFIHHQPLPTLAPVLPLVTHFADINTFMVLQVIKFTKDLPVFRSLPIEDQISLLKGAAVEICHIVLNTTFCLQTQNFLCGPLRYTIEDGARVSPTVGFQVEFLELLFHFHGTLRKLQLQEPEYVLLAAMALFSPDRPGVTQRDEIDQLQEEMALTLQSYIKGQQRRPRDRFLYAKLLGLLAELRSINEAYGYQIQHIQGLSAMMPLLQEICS
- assay: Activation of human CAR-LBD expressed in human C3A cells at 10 uM after 24 hrs by GAL4-dependent luciferase reporter gene assay relative to control
- Format: cell-based
- reported conditions: C3A cells expressing human CAR-LBD, read-out: FC
observed property: fold induction at 24 h, 10 µM

Previously resolved entries follow.
compound	fold induction at 24 h, 10 µM
Cc1cccc(NC(=O)N(Cc2ccccc2)Cc2ccccc2)c1	4.17
CCC(=O)NCC(=O)N1CCCN1C(=O)Cc1c(C)[nH]c2ccccc12	2.39
O=P(Oc1ccccc1)(Oc1ccccc1)Oc1ccccc1 [TRIPHENYL PHOSPHATE]	3.96

I. O=C(NCC1CCCCC1)N[C@H]1C[C@@H]1c1ccccc1
II. CCc1cc(Br)ccc1S(=O)(=O)Nc1ccccc1[C@@H](C)CC
Exam item: Lab notebook, comparison: I versus II , higher fold induction at 24 h, 10 µM goes to which? Answer by stating the label of the chosen item.
Marked response: II

====

- assayed target: CAR (NR1I3) Asn165Ala mutant (Homo sapiens, UniProt Q14994, N165A)
- assay: Activation of human CAR Asn165Ala mutant expressed in human C3A cells at 10 uM after 24 hrs by GAL4-dependent luciferase reporter gene assay relative to control
- Type: cell-based
- reported conditions: C3A cells expressing human CAR Asn165Ala mutant, read-out: FC
observed property: fold induction at 24 h, 10 µM

O=S(=O)(NCCSCc1ccccc1)c1ccc(Cl)cc1 1.17
CCOc1ccccc1CCCNC(=O)Nc1c(CC)cccc1CC 0.81
COc1ccc(OC)c(CN2C(=O)CS[C@@H]2c2ccc(F)c(Br)c2)c1 1.13
CCc1ccc(S(=O)(=O)Nc2ccccc2C(C)(C)C)cc1 1
CCc1cccc(NC(=O)N(CC)[C@H](C)Cc2ccc(OC)cc2)c1 1.72
